Target: RMI core complex (RMI1 OB2 domain with RMI2) (Homo sapiens, UniProt Q96E14+Q9H9A7)
Sequence (Q9H9A7 473-625 limits assumed): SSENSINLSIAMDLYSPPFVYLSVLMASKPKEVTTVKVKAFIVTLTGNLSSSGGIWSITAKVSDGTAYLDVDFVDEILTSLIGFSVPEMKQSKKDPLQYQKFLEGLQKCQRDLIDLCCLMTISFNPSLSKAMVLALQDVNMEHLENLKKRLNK
Sequence (Q96E14 1-147): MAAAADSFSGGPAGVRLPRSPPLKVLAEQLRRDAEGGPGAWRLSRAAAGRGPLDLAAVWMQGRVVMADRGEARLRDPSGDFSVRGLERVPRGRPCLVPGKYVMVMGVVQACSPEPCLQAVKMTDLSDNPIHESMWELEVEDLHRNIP
Assay: ITC
Assay type: binding
value type: Kd (µM)
Numbers only, in µM.

Kd reported for this molecule CCOC(=O)N1CCN(C(c2ccccn2)c2c(-c3ccccc3)n(O)c3ccccc23)CC1 (stereo not shown) : 3.4
